Values compiled from patent US20170015742A1.

biological target: T1, Human VEGF-A 165 (human, UniProt P15692 207-395); assay: Biacore SPR (Example 1.1)
T1 construct: also called hVEGF165; huVEGF-A165
T1 sequence (P15692 other isoform, or with tags, fused parts or gaps limits assumed): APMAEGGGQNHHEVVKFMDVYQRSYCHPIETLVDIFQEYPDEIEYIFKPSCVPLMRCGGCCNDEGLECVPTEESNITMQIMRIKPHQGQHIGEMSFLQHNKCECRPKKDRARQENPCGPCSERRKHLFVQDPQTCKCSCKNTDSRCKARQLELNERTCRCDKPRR
endpoint: pKd
Reminder that pKd means the negative base-10 logarithm of the concentration expressed in mol/L.

binder	assay-value
BEW-9A8-E2 (antibody, IgG2a, V domains shown) VH: QIQLVQSGPELKKPGESVKISCKASGYTFTNYGMYWVKQAPGQGLQYMGWINTETGKPIYADDFKGRFVFFLETSASTAYLQINNLKNEDMATFFCARVDYDGSFWFAYWGQGTLVTVSS VL: DTVLTQSPALAVSPGERVSISCRASESVSTVIHWYQQKPGQQPKLLIHGASNLESGVPARFSGSGSGTDFTLTIDPVEADDTATYFCQQHWNDPPTFGAGTKLEMK	12.02
BEW-1E3-D6 (antibody, IgG2b, V domains shown) VH: QIQLVQSGPELKKPGESVKISCKASGYPFTNSGMYWVKQAPGQGLQYMGWINTEAGKPTYADDFKGRFVFFLETSASTAYLQINNLKNEDMATYFCARWGYISDNSYGWFDYWGQGTLVTVSS VL: DTVLTQSPALAVSPGERVSISCRASEGVYSYMHWYQQNPGQQPKLLIYKASNLASGVPARFSGSGSGTDFTLTIDPVEADDTATYFCHQNWNDPLTFGSGTKLEIK	11.00
BEW-3A1-D10-G9 (antibody, IgG2b, V domains shown) VH: QVQLEQSGAELVKPGTSVKLSCMASGYTSSSNHMNWMKQTTGQGLEWIGIINPGSGGTRYNVKFEGKATLTVDKSSSTAFMQLNSLTPEDSAVYYCARAGFPGPFSYYAMGAWGQGTSVTVSS VL: DIQMTQSPPVLSASVGDRVTLSCKASQNIHNNLDWYQQKHGEAPKLLIFYTNNLQTGIPSRFSGSGSGTDYTLTISSLQPEDVATYYCYQYNSGYTFGAGTKLELK	9.85

Continue with the binder presented below.
Query: Find the measured pKd of BEW-8E6-E4 (antibody, IgG2a, V domains shown) VH: QIQLVQSGPELKKPGESVKISCKASGYTFTDYAMHWVKQAPGKVLKWMGWINTFTGKPTYIDDFKGRFVFSLEASASTANLQISDLKNEDTATYFCARGNYYSGYWYFDFWGPGTMVTMSS VL: DIQMTQSPASLSASLGETISIECRASEDISSNLAWYQQKSGKSPQLLIFAANRLQDGVPSRFSGSGSGTQFSLKISGMQPEDEGDYFCLQGSKFYTFGAGTKLELK and report it.
Result: 10.77
